Each recorded value in this set is attributed to patent US20260272881A1.

# Assay name: Solubility trials of QTX125 formulations (mixed 24 hours at room temperature)
# Assay type: physicochemical
# Test settings: aqueous HPβCD solution (HPβCD as only excipient), aqueous with cosolvent or surfactant or cyclodextrin, thermodynamic from solid; with HPβCD alone (Example 1.3)
Measured attribute: solubility at 24 h (µg/mL)
The figure you give is taken to be in µg/mL; do not add the unit.

# query: solubility at 24 h of entry O=C(NO)c1ccc(CNC(=O)c2[nH]c(-c3ccc(O)cc3)cc2-c2ccoc2)cc1 [QTX125]
140
